- EXPERIMENT: Pre-emergence treatment, summary over harmful plants
- Type: in vivo
- EXPERIMENTAL_SETUP: 504 h, application rate of 0.08 kg of active substance or less per hectare, read-out: herbicidal action, pre-emergence treatment (very good activity)
QUANTITY_MEASURED: pest or weed control at 80 g/ha

// worked examples, pest or weed control at 80 g/ha included
C=C[C@]1(C(=O)NC2COCC2C(=O)OC)CC(c2cc(F)cc(F)c2)=NO1 (some centres unmarked)    80 to 100%
CC1(C(=O)N[C@H]2CO[C@@H](C(=O)OCc3ccccc3)C2)CC(c2cccc(F)c2)=NO1 (mixture of isomers)    80 to 100%
COC(=O)C1COCC1NC(=O)C1(OC)CC(c2cc(F)cc(F)c2)=NO1 (centres unmarked)    80 to 100%
C=CC1(C(=O)N[C@H]2CO[C@@H](C(=O)O)C2)CC(c2cc(F)cc(F)c2)=NO1 (relative stereo)    80 to 100%
COC(=O)[C@H]1C[C@@H](NC(=O)[C@@]2(C)CC(c3cc(F)cc(F)c3)=NO2)CO1 (mixture of isomers)    80 to 100%
C=C[C@]1(C(=O)N[C@H]2CO[C@@H](C(=O)OC(C)C)C2)CC(c2cc(F)cc(F)c2)=NO1 (mixture of isomers)    80 to 100%

[in] Quick one: pest or weed control at 80 g/ha of COC(=O)[C@H]1C[C@@H](NC(=O)C2(C)CC(c3cc(F)cc(F)c3)=NO2)CO1 (relative stereo) ?
[out] 80 to 100%

[in] Quick one: pest or weed control at 80 g/ha of CCOC(=O)[C@H]1C[C@@H](NC(=O)C2(C)CC(c3cccc(F)c3)=NO2)CO1 (mixture of isomers) ?
[out] 80 to 100%

[in] Quick one: pest or weed control at 80 g/ha of COC(=O)C1COCC1NC(=O)C1(C)CC(c2cc(F)cc(F)c2)=NO1 (centres unmarked) ?
[out] 80 to 100%

[in] Quick one: pest or weed control at 80 g/ha of C=C[C@]1(C(=O)N[C@H]2CO[C@@H](C(=O)OC(C)(C)C)C2)CC(c2cc(F)cc(F)c2)=NO1 (mixture of isomers) ?
[out] 80 to 100%

[in] Quick one: pest or weed control at 80 g/ha of COC(=O)C1COCC1NC(=O)[C@@]1(C)CC(c2cc(F)cc(F)c2)=NO1 (some centres unmarked) ?
[out] 80 to 100%

[in] Quick one: pest or weed control at 80 g/ha of COC(=O)C1COCC1NC(=O)C1(OC)CC(c2cc(Cl)cc(Cl)c2)=NO1 (centres unmarked) ?
[out] 80 to 100%

[in] Quick one: pest or weed control at 80 g/ha of C=C[C@]1(C(=O)N[C@H]2CO[C@@H](C(=O)OC)C2)CC(c2cc(F)cc(F)c2)=NO1 (mixture of isomers) [I-10] ?
[out] 80 to 100%

[in] Quick one: pest or weed control at 80 g/ha of C=C[C@]1(C(=O)N[C@H]2CO[C@@H](C(=O)OCc3ccccc3)C2)CC(c2cc(F)cc(F)c2)=NO1 (mixture of isomers) ?
[out] 80 to 100%

[in] Quick one: pest or weed control at 80 g/ha of COC(=O)[C@H]1C[C@@H](NC(=O)C2(C(F)(F)F)CC(c3cc(F)cc(F)c3)=NO2)CO1 (relative stereo) ?
[out] 80 to 100%

[in] Quick one: pest or weed control at 80 g/ha of C=C[C@]1(C(=O)N[C@H]2CO[C@@H](C(=O)OC)C2)CC(c2cc(F)cc(F)c2)=NO1 (single isomer, unassigned) [I-11] ?
[out] 80 to 100%

[in] Quick one: pest or weed control at 80 g/ha of COC(=O)C1=C[C@@H](NC(=O)C2(C)CC(c3cccc(F)c3)=NO2)CO1 (some centres unmarked) ?
[out] 80 to 100%
